Below, each entry is listed alongside its reported cytotoxicity at 10 µM.
# protocol_details: Toxicity liver stage against HepG2, at 10uM
# Assay type: cell-based
# Parameters: test concentration 10 uM, cell line HepG2-A16-CD81EGFP
# test_conditions: human, HepG2-A16-CD81EGFP cells; read-out: INHIBITION

Cc1nc2[nH]cnc(NCCN3CCOCC3)c-2n1 ... 3.22%

Which cytotoxicity at 10 µM value belongs to CCc1[nH]c2ccc(CNC(=O)Cc3c(C)nc(N)nc3C)cc2c1C ? 2.02%

Which cytotoxicity at 10 µM value belongs to CC(=O)NC(C)(C)C(=O)Nc1ncc(Cc2ccc(C)c(F)c2)s1 ? 0.987%

Which cytotoxicity at 10 µM value belongs to O=C(CN1C[C@@H]2CC[C@H]1CN(Cc1ccccn1)C2)Nc1ccccc1 ? -5.92%

Which cytotoxicity at 10 µM value belongs to CN(C)CC1CSCCCN1C(=O)c1ccc(C(C)(C)C)cc1 (stereo unspecified) ? 6.25%

The values you see were collected from ChEMBL document CHEMBL4513216.
